Kindly state EC50 for each of the entries shown.
assay: Inhibition of NS5A in HCV genotype 1b infected in […] cells assessed as reduction in viral replication incubated for 48 hrs by luciferase reporter gene assay
State just the number; it will be interpreted in pM.

Exercise: Dear colleague, I am looking for the recorded EC50 of the following compound: `COC(=O)N[C@H](C(=O)N1[C@H](c2ncc(-c3ccc4c(c3)C(F)(F)c3cc(-c5cnc([C@@H]6C[C@@H]7CCC[C@@H]7N6C(=O)[C@@H](NC(=O)OC)[C@@H](C)OC)[nH]5)ccc3-4)[nH]2)C[C@@H]2CCC[C@@H]21)[C@@H](C)OC`
Key: 17

Exercise: Dear colleague, I am looking for the recorded EC50 of the following compound: `CN(C)[C@@H](C(=O)N1CCC[C@H]1c1ncc(-c2ccc3c(c2)-c2ccc(-c4cnc([C@@H]5CCCN5C(=O)[C@@H](c5ccccc5)N(C)C)[nH]4)cc2-3)[nH]1)c1ccccc1`
Key: 81

Exercise: Dear colleague, I am looking for the recorded EC50 of the following compound: `COC(=O)N[C@@H](CO)C(=O)N1[C@H](c2ncc(-c3ccc4c(c3)-c3ccc(-c5cnc([C@@H]6C[C@@H]7CCC[C@@H]7N6C(=O)[C@H](CO)NC(=O)OC)[nH]5)cc3-4)[nH]2)C[C@@H]2CCC[C@@H]21`
Key: 9

Exercise: Dear colleague, I am looking for the recorded EC50 of the following compound: `COC(=O)N[C@H](C(=O)N1[C@H](c2ncc(-c3ccc4c(c3)Oc3ccc(-c5cnc([C@@H]6C[C@@H]7CCC[C@@H]7N6C(=O)[C@@H](NC(=O)OC)[C@@H](C)OC)[nH]5)cc3O4)[nH]2)C[C@@H]2CCC[C@@H]21)[C@@H](C)OC`
Key: 7

Exercise: Dear colleague, I am looking for the recorded EC50 of the following compound: `COC(=O)N[C@H](C(=O)N1[C@H](c2ncc(-c3ccc4c(c3)-c3ccc(-c5cnc([C@@H]6C[C@@H]7CCC[C@@H]7N6C(=O)[C@@H](NC(=O)OC)[C@@H](C)O)[nH]5)cc3-4)[nH]2)C[C@@H]2CCC[C@@H]21)C(C)C`
Key: 6

Exercise: Dear colleague, I am looking for the recorded EC50 of the following compound: `COC(=O)N[C@H](C(=O)N1[C@H](c2ncc(-c3ccc4c(c3)CCc3cc(-c5cnc([C@@H]6C[C@@H]7CCC[C@@H]7N6C(=O)[C@@H](NC(=O)OC)[C@@H](C)OC)[nH]5)ccc3-4)[nH]2)C[C@@H]2CCC[C@@H]21)[C@@H](C)OC`
Key: 15

Exercise: Dear colleague, I am looking for the recorded EC50 of the following compound: `COC(=O)N[C@H](C(=O)N1[C@H](c2ncc(-c3ccc4c(c3)-c3ccc(-c5cnc([C@@H]6C[C@@H]7CCC[C@@H]7N6C(=O)[C@@H](NC(=O)OC)[C@@H](C)OC)[nH]5)cc3-4)[nH]2)C[C@@H]2CCC[C@@H]21)[C@@H](C)O`
Key: 8

Exercise: Dear colleague, I am looking for the recorded EC50 of the following compound: `COC(=O)N[C@H](C(=O)N1CCC[C@H]1c1ncc(-c2ccc3c(c2)-c2ccc(-c4cnc([C@@H]5CCCN5C(=O)[C@@H](NC(=O)OC)C(C)C)[nH]4)cc2-3)[nH]1)C(C)C`
Key: 8

Exercise: Dear colleague, I am looking for the recorded EC50 of the following compound: `COC(=O)N[C@H](C(=O)N1[C@H](c2ncc(-c3ccc4c(c3)-c3ccc(-c5cnc([C@@H]6C[C@@H]7CCC[C@@H]7N6C(=O)[C@@H](NC(=O)OC)[C@H](C)O)[nH]5)cc3-4)[nH]2)C[C@@H]2CCC[C@@H]21)[C@H](C)O`
Key: 10
